Values were extracted from PubChem BioAssay (NCI).

Each record here notes measured TGI.
# Tested on: U251 CNS
# assaySummary: NCI tumour cell line growth inhibition, 48 h
Where a SMILES comes first, the peptide text is derived from it. [ ]: non-standard residue; d: D form. The star is where a group is joined. NMeV = CN[C@H](C(=O)O)C(C)C; X29 = COc1ccc(CN*)c(OC)c1; Octanoyl = CCCCCCCC(=O)*; dNMeA = CN[C@H](C)C(=O)O
endpointName: TGI

molecule="OCC1OC(n2cnc3c(N/N=C\\c4ccccn4)ncnc32)C(O)C1O (stereo not drawn)" result="> 100 µM"
molecule=CC1(C)C=Cc2c(cc(O)c3c(=O)c4cc(Cl)ccc4[nH]c23)O1 result="> 10 µM"
molecule="CCCCCCCC(=O)N[C@H](C(=O)N[C@H](C(=O)N(C)[C@H](C(=O)N1CCC[C@H]1C(=O)N(C)[C@H](C)C(=O)NCc1ccc(OC)cc1OC)C(C)C)C(C)C)C(C)C (Octanoyl-VV[NMeV]P[dNMeA]-X29)" result="> 85.5 µM"

* * *

# Test system: SK-MEL-5 melanoma
# assaySummary: NCI tumour cell line growth inhibition, 48 h
Each record here notes measured TGI.
endpointName: TGI

compound="N#CC1C(=O)NC23CCCCC2C1c1ccccc1O3 (stereo unspecified)" assaysystem="SK-MEL-5 melanoma" result="> 100 µM"
compound=O=C(/C=C\c1cccc([N+](=O)[O-])c1)/C=C/c1cccc([N+](=O)[O-])c1 assaysystem="SK-MEL-5 melanoma" result="> 100 µM"
compound=O=C1C(=C([O-])c2ccccc2)C(=O)c2ccccc21.O=C1C(=C([O-])c2ccccc2)C(=O)c2ccccc21.[Fe+2] assaysystem="SK-MEL-5 melanoma" result="> 100 µM"
compound=CCOC(=O)/C(C=Nc1c(C)n(C)n(-c2ccccc2)c1=O)=C(/C)O assaysystem="SK-MEL-5 melanoma" result="> 100 µM"
compound="O=C(O)C12C3CCC(CC3)C1(C(=O)O)C1CCC2C1 (stereo unspecified)" assaysystem="SK-MEL-5 melanoma" result="> 100 µM"
compound="COC(=O)[C@@H]1CC(C(C[N+](=O)[O-])c2ccc(O[Si](C)(C)C(C)(C)C)cc2)C(=O)N1C(=O)OC(C)(C)C (stereo partly specified)" assaysystem="SK-MEL-5 melanoma" result="> 100 µM"
compound=CCc1nn(CN2CCOCC2)c(=S)n1/N=C/c1ccc(-c2ccc(Cl)cc2)o1 assaysystem="SK-MEL-5 melanoma" result="> 100 µM"
compound="O=C1CCC(N2Cc3cc(CNC(=O)C(F)(F)c4ccc(Cl)cc4)ccc3C2=O)C(=O)N1 (stereo unspecified)" assaysystem="SK-MEL-5 melanoma" result="> 100 µM"
compound="CCOC(=O)C1C(=S)NC(=O)C1C#N (stereo unspecified)" assaysystem="SK-MEL-5 melanoma" result="> 100 µM"
compound=CC(=O)Nc1ccc(SC#N)c2c(NC(C)=O)cccc12 assaysystem="SK-MEL-5 melanoma" result="> 100 µM"
compound="COC(=O)[C@@H]1[C@H](OC(C)=O)CCC2[C@@]3(C[C@@H](c4ccoc4)O[C@@H]3OC)[C@H](C)CC[C@]21C(=O)OC (stereo partly specified)" assaysystem="SK-MEL-5 melanoma" result="> 25 µM"
compound=CC1=C2[C@@H](CC1)[C@]1(C)O[C@@](c3ccccc3)(C[C@H]1OC(=O)CO)[C@H]2OC(=O)/C=C/c1ccccc1 assaysystem="SK-MEL-5 melanoma" result="29.7 µM"
compound="COc1ccc2c(c1)C(=O)C1CC(=O)CCC21 (stereo unspecified)" assaysystem="SK-MEL-5 melanoma" result="> 100 µM"
compound=O=c1[nH]cc(-c2c[nH]c3ccccc23)nc1-c1c[nH]c2ccccc12 assaysystem="SK-MEL-5 melanoma" result="26.1 µM"
compound=CC1=NC(=Cc2cccc(Cl)c2)C(=O)N1n1c(-c2ccccc2)nc2ccccc2c1=O assaysystem="SK-MEL-5 melanoma" result="> 100 µM"
compound="CCOC(=O)C1C(c2ccc3c(c2)OCO3)c2c([nH][nH]c2=O)CC1(C)O (stereo unspecified)" assaysystem="SK-MEL-5 melanoma" result="> 100 µM"
compound="CC(=O)Nc1ccc(C(O)/C(=N/N)c2nc3ccc(Cl)cc3[nH]c2=O)cc1 (stereo unspecified)" assaysystem="SK-MEL-5 melanoma" result="> 100 µM"
compound="Cc1cccc(C)c1NC(=O)/C(=N/NC(N)=S)C(C)C(=O)c1ccc(Cl)cc1 (stereo unspecified)" assaysystem="SK-MEL-5 melanoma" result="> 100 µM"
compound="Fc1ccc(C2SCc3nc4ccccc4n32)c(F)c1 (stereo unspecified)" assaysystem="SK-MEL-5 melanoma" result="79.6 µM"
compound=CC(=O)CN(Cc1cc(C)c2c(c1)c1ccccc1n2Cc1ccccc1)S(=O)(=O)c1ccc(C)cc1 assaysystem="SK-MEL-5 melanoma" result="> 100 µM"
compound="COc1cc2c(c(OC)c1OC)-c1ccc(SC)c(=O)cc1C(NC(=O)c1ccccc1)CC2 (stereo unspecified)" assaysystem="SK-MEL-5 melanoma" result="< 0.01 µM"
compound=COc1cccc(OC(=O)c2ccc(C(F)(F)F)nc2Nc2cc(Cl)ccc2C)c1 assaysystem="SK-MEL-5 melanoma" result="12.5 µM"
compound="Cc1ccc(C2OC(COCc3ccc(Cl)cc3)C(OCc3ccc(Cl)cc3)C2O)cc1 (stereo unspecified)" assaysystem="SK-MEL-5 melanoma" result="25.9 µM"
compound=O=C(O)CN1CCN(CC(=O)O)CC(=O)[O][Hg][O]C(=O)C1 assaysystem="SK-MEL-5 melanoma" result="> 57 µM"
compound="CC/C=C\\C/C=C\\C/C=C\\CCCCCCCC(=O)OCC(O)CO (stereo unspecified)" assaysystem="SK-MEL-5 melanoma" result="> 100 µM"
compound=c1cnn2ncc(-c3ccnc(NCCCN4CCOCC4)n3)c2c1 assaysystem="SK-MEL-5 melanoma" result="9.7 µM"

* * *

# System: A498 renal
# assaySummary: NCI tumour cell line growth inhibition, 48 h
Each record here notes measured TGI.
endpointName: TGI

compound=CN(C)c1ccc(NN=C2SC(=Nc3ccccc3)C(=Nc3ccccc3)S2)cc1 endpointname=TGI result="> 100 µM"
compound=CC1=NN(C(=O)c2ccncc2)C(=O)C1 endpointname=TGI result="> 100 µM"
compound=OCCNCCN1CCN(CCCN2c3ccccc3Sc3ccc(C(F)(F)F)cc32)CC1 endpointname=TGI result="> 100 µM"
compound="COc1cc2c(cc1OC)C1C=NC(C2)c2cc(OC)c(OC)cc21 (stereo not given)" endpointname=TGI result="> 100 µM"
compound="N#C[C@H](OC1OC(COC2OC(CO)C(O)C(O)C2O)C(O)C(O)C1O)c1ccccc1 (stereo not given in full)" endpointname=TGI result="> 11.6 µM"

* * *

# Tested on: SNB-75 CNS
# assaySummary: NCI tumour cell line growth inhibition, 48 h
endpointName: TGI

compound="O=C1CCC(N2Cc3cc(CNC(=O)C(F)(F)c4ccc(Cl)cc4)ccc3C2=O)C(=O)N1 (stereo unspecified)" result="> 100 µM"
compound="COc1cc(N2C(=O)[C@H](O)C2c2ccc(SC)cc2)cc(OC)c1OC (stereo partly specified)" result="> 100 µM"
compound=O=C(/C=C/c1ccccc1)CCN1CCOCC1 result="51.6 µM"
compound="COC(=O)[C@@H]1[C@H](OC(C)=O)CCC2[C@@]3(C[C@@H](c4ccoc4)O[C@@H]3OC)[C@H](C)CC[C@]21C(=O)OC (stereo partly specified)" result="> 25 µM"
compound=C=CC[C@@H](N)C(=O)N(C)[C@@H](C)[C@@H](O)c1ccccc1 result="> 100 µM"
compound="CCC(=O)C12OC3OC(C)(C)OC3C1OC(C)(C)O2 (stereo unspecified)" result="> 100 µM"
compound="Cc1cccc(C)c1NC(=O)/C(=N/NC(N)=S)C(C)C(=O)c1ccc(Cl)cc1 (stereo unspecified)" result="> 100 µM"
compound="CC(C)C[C@H](NC(=O)CNC(=O)c1cc(Cl)ccc1Cl)B1OC(=O)CC(CC(=O)O)(C(=O)O)O1 (stereo partly specified)" result="0.504 µM"
compound=N#Cc1c(N2CCOCC2)nc(=S)[nH]c1-c1ccco1 result="55.6 µM"
compound="C=CC1(NC(=O)c2ccccc2)CCC(C(C)(C)C)CC1 (stereo unspecified)" result="> 81.5 µM"
compound=O=C(CSc1nnc(Cc2ccccc2)o1)Nc1ccccc1 result="> 100 µM"
compound=CCOC(=O)c1c(C)nc2c1c(CN(C)C)c(O)c1[nH]c(C)c(C)nc12 result="60.7 µM"
compound=O=[N+]([O-])c1nccn1CCCNc1ccnc2cc(Cl)ccc12 result="> 100 µM"
compound="CCN(CC)CC1c2ccccc2C(CNc2ccccc2)N1C (stereo unspecified)" result="> 100 µM"
compound="CC(C)(C)c1cc2c(OC/C=C/c3ccccc3)c(c1)Cc1cc(C(C#N)(OC/C=C/c3ccccc3)OC/C=C/c3ccccc3)cc(c1OC/C=C\\c1ccccc1)Cc1cc(C(C)(C)C)cc(c1OC/C=C/c1ccccc1)Cc1cc(C(C#N)(OC/C=C\\c3ccccc3)OC/C=C/c3ccccc3)cc(c1OC/C=C\\c1ccccc1)C2 (stereo unspecified)" result="> 100 µM"
compound="NC(=O)c1csc(C2OC(CO)C(O)C2O)n1 (stereo unspecified)" result="7140 µM"
compound=COc1ccc2cc1Oc1ccc(cc1)C[C@H]1c3c(cc4c(c3Oc3cc5c(cc3OC)CCN(C)[C@@H]5C2)OCO4)CCN1C result="11.4 µM"
compound=O=C(OCc1ccc2ccccc2n1)c1cn(C2CC2)c2cc(N3CCN(Cc4ccc5ccccc5n4)CC3)c(F)cc2c1=O result="> 66.6 µM"
compound="O=C1OC2(CC1C1(O)C3CC4CC(C3)CC1C4)C1CC3CC(C1)CC2C3 (stereo unspecified)" result="> 100 µM"
compound=CC1(O)C=CC(=O)C=C1 result="> 100 µM"
compound=c1cnn2ncc(-c3ccnc(NCCCN4CCOCC4)n3)c2c1 result="12.7 µM"
